- procedure text: inhibitors of hepatocyte lipid droplet formation, primary screen, imaging, high-throughput imaging, BODIPY stain (AID 1656)
- condition: AML12 mouse hepatocytes, oleate lipid droplets, at 6.5 µM; hits give high values
The whole screen tested about 240,000 compounds, of which about 950 (0.4%) were called active. Many of the other results were omitted from the sample, so actives are more common in it than they were.
Listed next: entries and their corresponding inhibition.
I only need the number, in %, no unit after it.

Known results for molecules:
# molecule, unit of measurement, inhibition
data = [
    ("Cc1c2cnn(CC(=O)NCCCN3CC(C)CC(C)C3)c(=O)c2c(C)n1Cc1ccc(Cl)cc1 (stereo not given)", "%", -27.4),
    ("N#C/C(=C\\c1ccccc1C(F)(F)F)C(=O)Nc1ccccc1F", "%", 1.8),
    ("Cc1cc(N2CCN(c3ccccc3)CC2)nc(N2CCOCC2)n1", "%", -5.7),
]

# inhibition of CCCCN1C(=O)/C(=C/C=C2/C=Cc3ccccc3N2CC)SC1=S = 56.1

Lab book: inhibition of CN(C)c1ccc(/C=N/Nc2cc(N3CCOCC3)nc(N3CCOCC3)n2)cc1 noted as -2.2

What the record says about CCOC(=O)N1CCN(C(=O)c2ccc3c(=O)n(CCc4ccc(OC)c(OC)c4)c(=O)[nH]c3c2)CC1 : inhibition is 16.5

Summary for this molecule, Cc1c(C=O)c2ccccc2n1CCOc1ccccc1 : inhibition is -1

Data point: N#C/C(=C/c1ccc(N2CCOCC2)o1)C(=O)N1CCOCC1 ; inhibition = -9.6

For this molecule ( C(=N/Nc1cc(N2CCOCC2)nc(N2CCOCC2)n1)/c1ccccc1 ), measured inhibition is 120

// CCN1C(=O)/C(=C2/Sc3ccccc3N2CCCS(=O)(=O)O)SC1=S : inhibition value = -5.7
